# assay-target: Human immunodeficiency virus type 1 integrase (Human immunodeficiency virus 1, UniProt Q7ZJM1)
# Sequence (Q7ZJM1 whole entry): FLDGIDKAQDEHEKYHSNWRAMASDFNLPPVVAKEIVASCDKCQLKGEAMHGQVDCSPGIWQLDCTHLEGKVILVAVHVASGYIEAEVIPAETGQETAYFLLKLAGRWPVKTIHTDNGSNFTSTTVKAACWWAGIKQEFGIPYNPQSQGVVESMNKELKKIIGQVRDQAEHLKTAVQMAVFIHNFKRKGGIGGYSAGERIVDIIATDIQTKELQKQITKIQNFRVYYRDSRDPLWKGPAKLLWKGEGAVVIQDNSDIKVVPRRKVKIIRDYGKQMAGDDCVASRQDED
pIC50: −log10 of the molar value.
reported-property: pIC50

1. O=C1c2c(c(C(=O)N3CCOCC3)c3cccnc3c2O)CN1Cc1ccc(F)cc1; 7.40

A. CC(=O)N(C)c1cc(C(=O)NCc2ccc(F)cc2)c(O)c2ncccc12
B. [N-]=[N+]=NCc1cc(CN=[N+]=[N-])cc(C(=O)/C=C(\O)C(=O)O)c1
Consider entries A and B . Which has the numerically lower pIC50? // return label of chosen record
B
(B: 6.34, A: 7.70)

I. CC(=O)N(C)CCNc1cc(C(=O)NCc2ccc(F)cc2)c(O)c2ncccc12
II. O=C(O)/C(O)=C/C(=O)c1cccn1CCCc1ccccc1
III. O=C(O)/C(O)=C/C(=O)c1cccn1Cc1ccccc1
IV. COc1cnc2c(O)c3c(c(OC)c2c1)CN(Cc1ccc(F)cc1)C3=O
Order the records so the highest pIC50 appears first and the lowest last. I would appreciate it if you listed the labels in the requested order.
I, IV, III, II
(I: 7.52, IV: 7.05, III: 6.66, II: 6.30)

Cited source for all entries: ChEMBL document CHEMBL1154051
